experimentalDetails: NCI Yeast Anticancer Drug Screen. Data for the cln2 rad14 strain (AID 165);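 note: 0% = growth equal to vehicle treated cultures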
studyConditions: S. cerevisiae cln2 rad14 strain, at 50.0 µM, active compounds read high
Compounds without any hit were thinned out: in the full panel of roughly 79,000, 15% have a hit. Activity calls are given as the source filed them. Cut-off read from the data, not from the text of the source: active = growth inhibition above about 70%; inactive = the rest.
Entries and their growth inhibition

{"compound": "COC1CCC2(C)C3CCC4C(=CCC5C(C)(C)C(=O)CCC45C)CC3(C)CCC2C1(C)C (configuration not stated)", "growth inhibition": "-12.8% (inactive)"}
{"compound": "CCOC(=O)/C(F)=C/c1cccc(C#N)c1", "growth inhibition": "24.7% (inactive)"}
{"compound": "CCOc1ccc(OCC)c2c1C(=O)c1ccccc1C2=O", "growth inhibition": "-1.3% (inactive)"}
{"compound": "CCS(=O)(=O)/C=C/c1ccco1", "growth inhibition": "-36.9% (inactive)"}
{"compound": "Fc1ccc(C2=NOC3COC4C=CC=CC4OCC23)cc1 (configuration not stated)", "growth inhibition": "-9.15% (inactive)"}
{"compound": "COC(=O)C(O)C(O)C(O)C(O)C(O)CO (configuration not stated)", "growth inhibition": "-45.4% (inactive)"}
{"compound": "CN(CC1NCCCC1O)C12CC3CC(CC(C3)C1)C2 (configuration not stated)", "growth inhibition": "12% (inactive)"}
{"compound": "O=C(O)c1ccccc1C(=O)OCC1CCCc2ccccc21 (configuration not stated)", "growth inhibition": "-100% (inactive)"}
{"compound": "CCOC(=O)C(=O)C(=O)NN(C)C1=NCCN1", "growth inhibition": "-13.6% (inactive)"}
{"compound": "N#CCCN(c1ccc(C=Nc2ccccc2Cl)cc1)S(=O)(=O)c1ccccc1", "growth inhibition": "4.25% (inactive)"}
{"compound": "O=C1OC(=O)C2C3CC(C4OC34)C12 (configuration not stated)", "growth inhibition": "-20.8% (inactive)"}
{"compound": "O=C1c2cc([N+](=O)[O-])ccc2-c2c(Cl)cc(NC(=O)C(F)(F)F)cc21", "growth inhibition": "-40% (inactive)"}

All values here come from PubChem BioAssay (NCI).
